Target: FLAG-tagged PRMT1 (Rattus norvegicus)
Construct: Full-length FLAG-tagged PRMT protein; made in house; host or cells: Sf9 insect cells (baculovirus)
Test: Fluorescence-based in vitro PRMT assay (F-PRMT assay), PRMT1
Format: biochemical
Conditions: 100 μM compound

COMPOUND: CN(C)Cc1ccccc1N/C=C1\C(=O)NC(=O)c2ccccc21 [TR-022]
effect on PRMT1 activity (in words): equal
--
COMPOUND: CN(C)c1ccccc1N/C=C1\C(=O)NC(=O)c2ccccc21 [ICTR-015]
effect on PRMT1 activity (in words): no effect
--
COMPOUND: CCN(CC)c1ccccc1N/C=C1\C(=O)NC(=O)c2ccccc21 [ICTR-060]
effect on PRMT1 activity (in words): no effect

---

Target: FLAG-tagged PRMT1 (Rattus norvegicus)
Construct: Full-length FLAG-tagged PRMT protein
Test: Fluorescence-based in vitro PRMT assay (F-PRMT assay), PRMT1
Settings: read-out: half-maximal effective concentration (EC50) for PRMT1

COMPOUND_STRUCTURE_STRING: CN(C)Cc1cccc(CN/C=C2\C(=O)NC(=O)c3ccccc32)c1.Cl
EC50 (µM): 108

---

Target: FLAG-tagged PRMT1 (Rattus norvegicus)
Construct: Full-length FLAG-tagged PRMT protein; made in house; host or cells: Sf9 insect cells (baculovirus)
Test: Fluorescence-based in vitro PRMT assay (F-PRMT assay), PRMT1
Format: biochemical
Settings: 100 μM compound
OBSERVED_PROPERTY: effect on PRMT1 activity (in words)

COMPOUND_STRUCTURE_STRING: CO/C=C1/C(=O)NC(=O)c2ccccc21
REPORTED_RESULT: no significant effect

COMPOUND_STRUCTURE_STRING: O=C1NC(=O)c2ccccc2/C1=C/Nc1ccccn1
REPORTED_RESULT: no significant effect

COMPOUND_STRUCTURE_STRING: CCN(CC)Cc1ccccc1CN/C=C1\C(=O)NC(=O)c2ccccc21
REPORTED_RESULT: no significant effect

---

Biological target: FLAG-tagged PRMT1 (Rattus norvegicus, UniProt Q63009)
Construct: Full-length FLAG-tagged PRMT protein; made in house; host or cells: Sf9 insect cells (baculovirus)
Sequence (Q63009 whole entry): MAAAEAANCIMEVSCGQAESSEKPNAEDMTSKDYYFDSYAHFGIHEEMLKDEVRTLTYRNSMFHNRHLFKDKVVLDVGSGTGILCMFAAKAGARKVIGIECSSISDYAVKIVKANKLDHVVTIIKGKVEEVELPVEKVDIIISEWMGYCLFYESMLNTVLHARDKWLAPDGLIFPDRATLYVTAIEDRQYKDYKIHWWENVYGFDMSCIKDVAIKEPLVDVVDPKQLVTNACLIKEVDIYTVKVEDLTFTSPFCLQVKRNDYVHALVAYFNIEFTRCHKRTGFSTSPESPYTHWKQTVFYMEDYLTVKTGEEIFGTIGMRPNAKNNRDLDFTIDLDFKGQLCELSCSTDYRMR
Assay: Fluorescence-based in vitro PRMT assay (F-PRMT assay), PRMT1
Assay type: biochemical
Conditions: Table 1; 100 μM compound, 2 μM PRMT, vs solvent control = 100%, n = 3; racemates used

MOLECULE: N=C(N)NCCSCc1cccc2ccccc12 [Compound K001JS010]
TARGET_UNDER_TEST: FLAG-tagged PRMT1 (Rattus norvegicus, UniProt Q63009)
Experimental result (PRMT1): PRMT1 i

MOLECULE: CNC[C@H](O)COc1ccc([N+](=O)[O-])cc1Cl (racemic) [Compound K001JS007]
TARGET_UNDER_TEST: FLAG-tagged PRMT1 (Rattus norvegicus, UniProt Q63009)
Experimental result (PRMT1): PRMT1 i

---

Biological target: FLAG-tagged PRMT4 (Mus musculus, UniProt Q9WVG6)
Construct: Full-length FLAG-tagged PRMT protein; made in house; host or cells: Sf9 insect cells (baculovirus)
Sequence (Q9WVG6 whole entry): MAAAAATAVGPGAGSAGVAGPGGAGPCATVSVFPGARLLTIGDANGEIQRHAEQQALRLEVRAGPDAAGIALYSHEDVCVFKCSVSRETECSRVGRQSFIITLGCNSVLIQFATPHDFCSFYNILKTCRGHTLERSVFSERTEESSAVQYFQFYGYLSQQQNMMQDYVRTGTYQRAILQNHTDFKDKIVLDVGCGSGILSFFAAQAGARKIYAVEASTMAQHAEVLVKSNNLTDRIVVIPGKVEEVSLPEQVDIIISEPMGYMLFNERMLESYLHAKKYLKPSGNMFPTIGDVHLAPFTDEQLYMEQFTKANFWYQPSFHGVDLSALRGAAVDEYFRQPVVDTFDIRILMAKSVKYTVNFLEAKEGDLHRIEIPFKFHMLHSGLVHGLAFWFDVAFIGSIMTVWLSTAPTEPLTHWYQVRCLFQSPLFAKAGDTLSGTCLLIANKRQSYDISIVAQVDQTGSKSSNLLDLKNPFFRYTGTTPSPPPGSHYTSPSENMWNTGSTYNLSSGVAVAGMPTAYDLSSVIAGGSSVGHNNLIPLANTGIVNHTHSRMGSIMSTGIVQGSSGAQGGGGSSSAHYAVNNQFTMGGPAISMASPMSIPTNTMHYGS
Test: Fluorescence-based in vitro PRMT assay (F-PRMT assay), PRMT4
Type: biochemical
Conditions: Table 1; 100 μM compound, 2 μM PRMT, vs solvent control = 100%, n = 3; racemates used
OBSERVED_PROPERTY: Experimental result (PRMT4)

MOLECULE: NCC(=O)Nc1ccc(NC(=O)c2ccco2)cc1 [Compound K002JS013]
TARGET_UNDER_TEST: FLAG-tagged PRMT4 (Mus musculus, UniProt Q9WVG6)
OBSERVED_PROPERTY: Experimental result (PRMT4)
REPORTED_RESULT: PRMT4 i
--
MOLECULE: CNCCCNCCc1ccccc1 [Compound K001JS006]
TARGET_UNDER_TEST: FLAG-tagged PRMT4 (Mus musculus, UniProt Q9WVG6)
OBSERVED_PROPERTY: Experimental result (PRMT4)
REPORTED_RESULT: PRMT4 i
--
MOLECULE: CNC[C@@H](O)COc1cccc(OC)c1 (racemic) [Compound K001JS003]
TARGET_UNDER_TEST: FLAG-tagged PRMT4 (Mus musculus, UniProt Q9WVG6)
OBSERVED_PROPERTY: Experimental result (PRMT4)
REPORTED_RESULT: PRMT4 i
--
MOLECULE: CNC[C@H](O)COc1ccc([N+](=O)[O-])cc1Cl (racemic) [Compound K001JS007]
TARGET_UNDER_TEST: FLAG-tagged PRMT4 (Mus musculus, UniProt Q9WVG6)
OBSERVED_PROPERTY: Experimental result (PRMT4)
REPORTED_RESULT: PRMT4 i
